Test system: Brain (other hemisphere)
Details: dose 4X, 2 h, PBS background subtracted
Ends that are not written are not given here.
assay-readout: Brain (other hemisphere) fluorescence

Request: Brain (other hemisphere) fluorescence, test system Brain (other hemisphere), entry PMLA/LLL/M4/rhodamine (peptide 1 KAPETALD; peptide 2 Leu-Leu-Leu; not fully specified) [P/LLL/M4]
3.8

Form: Entry = PMLA/LLL/D3/rhodamine (peptide 1 RPRTRLHTHRNRC; peptide 2 Leu-Leu-Leu; not fully specified (some residues)) [P/LLL/D3] | System = Brain (other hemisphere) | Brain (other hemisphere) fluorescence = ____
7.8

Query the reported Brain (other hemisphere) fluorescence for Brain (other hemisphere); item: PMLA/LLL/D1/rhodamine (peptide 1 QSHYRHISPAQVC; peptide 2 Leu-Leu-Leu; not fully specified) [P/LLL/D1]
5.3

Kindly state the measured Brain (other hemisphere) fluorescence obtained for PMLA/LLL/B6/rhodamine (peptide 1 CGHKAKGPRK; peptide 2 Leu-Leu-Leu; also: conjugated to polymalic acid (PMLA), rhodamine label) [P/LLL/B6] with Brain (other hemisphere).
6.8

* * *

Molecular target: Aβ plaque (Homo sapiens, UniProt P05067)
Construct: tissue Jackson Laboratories; host or cells: brain of 6-8 month old APPswe/PS1ΔE9 transgenic mice, plaques labelled in vivo after iv injection and counterstained on sections
Sequence (P05067 672-713 limits assumed): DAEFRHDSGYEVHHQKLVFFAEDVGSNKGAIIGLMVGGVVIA
Experiment: Percentage of total plaques labeled by mini nanodrugs in AD mice
Format: in vivo,  (B6.Cg-Tg (APPswe/PS1ΔE9) 85Dbo/J hemizygous) mice
Conditions: injected dose 8X (0.55 μmol/Kg)
Ends that are not written are not given here.
What Percentage of total plaques labeled by the reagents was measured for each of the following?

Name the reported Percentage of total plaques labeled by the reagents value associated with the substance PMLA/LLL/D3/rhodamine (peptide 1 RPRTRLHTHRNRC; peptide 2 Leu-Leu-Leu; not fully specified (some residues)) [P/LLL/D3]
21.1%

Dear colleague, I am looking for the recorded Percentage of total plaques labeled by the reagents of the following substance: PMLA/LLL/B6/rhodamine (peptide 1 CGHKAKGPRK; peptide 2 Leu-Leu-Leu; also: conjugated to polymalic acid (PMLA), rhodamine label) [P/LLL/B6]
3.3%

Using the record for PMLA/LLL/D1/rhodamine (peptide 1 QSHYRHISPAQVC; peptide 2 Leu-Leu-Leu; not fully specified) [P/LLL/D1] , report its Percentage of total plaques labeled by the reagents.
0%

Would you kindly share the measured Percentage of total plaques labeled by the reagents for PMLA/LLL/M4/rhodamine (peptide 1 KAPETALD; peptide 2 Leu-Leu-Leu; not fully specified) [P/LLL/M4] ?
0%
